tested on: Full length human recombinant HDAC6 protein (Homo sapiens, UniProt Q9UBN7)
Construct: made in house
Sequence (Q9UBN7 whole entry): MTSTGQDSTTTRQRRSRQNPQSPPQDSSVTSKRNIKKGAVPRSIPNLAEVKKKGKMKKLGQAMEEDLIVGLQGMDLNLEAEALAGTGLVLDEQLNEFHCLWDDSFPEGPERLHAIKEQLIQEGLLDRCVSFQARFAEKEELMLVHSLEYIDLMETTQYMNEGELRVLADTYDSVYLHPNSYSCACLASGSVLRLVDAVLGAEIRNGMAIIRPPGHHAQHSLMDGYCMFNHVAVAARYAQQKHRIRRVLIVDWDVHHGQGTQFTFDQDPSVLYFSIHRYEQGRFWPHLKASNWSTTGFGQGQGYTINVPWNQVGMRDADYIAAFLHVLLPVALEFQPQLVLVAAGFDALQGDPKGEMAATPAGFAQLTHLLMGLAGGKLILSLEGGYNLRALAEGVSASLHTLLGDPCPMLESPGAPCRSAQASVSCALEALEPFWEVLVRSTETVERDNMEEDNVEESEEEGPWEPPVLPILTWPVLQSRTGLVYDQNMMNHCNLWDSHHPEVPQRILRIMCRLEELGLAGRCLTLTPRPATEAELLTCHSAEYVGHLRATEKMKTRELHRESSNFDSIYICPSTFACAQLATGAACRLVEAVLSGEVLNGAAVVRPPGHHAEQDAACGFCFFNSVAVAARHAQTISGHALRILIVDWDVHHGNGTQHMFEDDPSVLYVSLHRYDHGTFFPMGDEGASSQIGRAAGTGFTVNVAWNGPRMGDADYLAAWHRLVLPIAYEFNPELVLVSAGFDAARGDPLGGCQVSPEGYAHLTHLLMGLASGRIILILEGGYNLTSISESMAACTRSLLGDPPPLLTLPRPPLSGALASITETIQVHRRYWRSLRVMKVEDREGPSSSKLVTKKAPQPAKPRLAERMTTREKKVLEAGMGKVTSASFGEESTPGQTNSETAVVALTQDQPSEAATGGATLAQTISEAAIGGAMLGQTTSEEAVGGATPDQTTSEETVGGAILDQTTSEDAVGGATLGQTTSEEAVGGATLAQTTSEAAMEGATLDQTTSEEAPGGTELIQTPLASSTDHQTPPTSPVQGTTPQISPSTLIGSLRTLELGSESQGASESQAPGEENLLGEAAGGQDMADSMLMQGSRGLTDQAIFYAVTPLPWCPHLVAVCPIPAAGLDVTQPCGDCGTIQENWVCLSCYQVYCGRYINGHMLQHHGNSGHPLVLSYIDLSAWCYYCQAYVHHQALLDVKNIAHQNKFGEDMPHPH
assay protocol: In vitro histone deacetylase assay: enzymatic HDAC6 electrophoretic mobility shift assay
Assay type: biochemical
test conditions: peptide substrate RHKK(Ac)-NH2 2 μM, enzyme 1 nM, 25° C., 12 concentrations; read-out: HDAC6 activity range (IC50)
outcome measure: IC50

Please review the entries below; each comes with its answer.
molecule	outcome measure	reported result
Cc1ccccc1CN1CC[C@@]2(Cc3ccc(C(=O)NO)cc3C2)C1=O [Compound I-10]	IC50	10 to 50 nM
O=C(NO)c1ccc2c(c1)C[C@@]1(CCN(c3ccccc3)C1=O)C2 [Compound I-13]	IC50	10 to 50 nM
O=C(NO)c1ccc2c(c1)C[C@]1(CCN(c3ccc(F)cc3)C1=O)C2 [Compound I-16]	IC50	10 to 50 nM

Prompt line: Please give the measured IC50 for this molecule: CC(=O)N1CC[C@@]2(Cc3ccc(C(=O)NO)cc3C2)C1 [Compound I-29]
Response line: 10 to 50 nM

Prompt line: Please give the measured IC50 for this molecule: O=C(NO)c1ccc2c(c1)C[C@@]1(CCN(c3cccnc3)C1=O)C2 [Compound I-17]
Response line: ≤ 10 nM

Prompt line: Please give the measured IC50 for this molecule: O=C(NO)c1ccc2c(c1)C[C@]1(CCN(c3cccnc3)C1=O)C2 [Compound I-18]
Response line: 10 to 50 nM
